Provenance of the data: patent US20070111251A1

assay: Additive decomposition of peak excitation and emission wavelengths (model coefficients of A and B groups)
setup_conditions: influence of B group on peak excitation wavelength, B group 1 as baseline
Excerpt: The chemical structure of the styryl library is illustrated in FIG. 3. […] The additive model λij=ai+βj+εij was fit to the data using least squares yielding parameters αi^ex, αi^em, βj^ex, and βj^em that quantify the influence of each A and B group on the spectrum of the styryl product. […] Based on this analysis, the contribution of the A and B functional groups to the fluorescence of the styryl product is quantified using the fitted coefficients αi^ex, βj^ex, βi^em, and βj^em. […]
experimental_endpoint: βj^ex (nm)
One number for each entry, in nm.

> print(dat)
                                  compound  experimental.endpoint  quantitative.readout
1       Cc1cccc(C)[n+]1C.[I-] [B group 12]                  βj^ex                 −10.2
2  Cc1cc(C)[n+](C)c(C)c1.[I-] [B group 13]                  βj^ex                  −1.1
3     Cc1cc[n+](C)c(C)c1.[I-] [B group 11]                  βj^ex                  −4.2

Suppose we examine the compound Cc1cc[n+](C)c2ccccc12.[I-] [B group 7] ; what βj^ex value has been reported?
29.6
